Test system: SN12C
assay method text: NCI tumour cell line growth inhibition, 48 h
The source made the active and inactive calls. Cut-off read from the data, not from the text of the source: active = GI50 up to about 1.1 µM and inactive = higher.
Write down one outcome, taken from active, inactive

Q: Can you look up the reported call for CCCCCCCCCCCCCCCCNC(=O)/C(=C\c1ccc(Cl)c(Cl)c1)NC(=O)c1ccccc1 for me?
A: inactive

Q: Please state the recorded outcome for this molecule: COC(=O)c1ccccc1C1CN=NC12Cc1ccccc1C2=O (stereo unspecified)
A: inactive

* * *

Tested on: SF-295
assay method text: NCI tumour cell line growth inhibition, 48 h
The source made the active and inactive calls. Rule as the data show it: active = GI50 up to about 1.1 µM and inactive = higher.
In this exercise, the only acceptable responses are label 1 = active, label 0 = inactive

Illustrative cases are given below, each with its answer.
[
  {
    "compound": "CC1C2CC=CC(=O)[C@@]2(C)CCC12OCCO2 (some centres not stated)",
    "cat": "label 0"
  },
  {
    "compound": "CSc1nc2c(c(O)c(C)c(=O)n2C2OC(COC(C)=O)C(OC(C)=O)C(OC(C)=O)C2OC(C)=O)c(=O)n1C (configuration not stated)",
    "cat": "label 0"
  },
  {
    "compound": "COc1cc(OC)c(/C=C\\c2cc(/C=C/c3c(OC)cc(OC)cc3OC)c3ccccc3[n+]2C)c(OC)c1",
    "cat": "label 0"
  },
  {
    "compound": "COC(=O)c1ccccc1C1CN=NC12Cc1ccccc1C2=O (configuration not stated)",
    "cat": "label 0"
  }
]

Q: Check the results log: what was the call for CC(=O)O[C@H]1CSC[C@@H](OC(C)=O)C1[N+](=O)[O-] (some centres not stated) ?
A: label 0

Q: Recorded test call requested for Cc1cc(N(CCOS(C)(=O)=O)CCOS(C)(=O)=O)ccc1/C=N/c1ccc(-c2csc(-c3ccc(Br)cc3)n2)cc1
A: label 0

Q: // param item: CCOC(=O)C1=C(C)N(c2ccccc2)C2=C(C(=O)N(c3ccccc3)C2c2ccccc2)C1c1ccccc1 (configuration not stated) ; yields the recorded call
A: label 0

Q: Call for entry Cc1cn(C2OC(CO[Si](C)(C)C(C)(C)C)/C(=C\C#N)C2O[Si](C)(C)C(C)(C)C)c(=O)[nH]c1=O (configuration not stated) :
A: label 0

Q: State the result this test recorded for CN1CCC(=O)/C(=C/c2ccccc2)C1 .
A: label 0

* * *

Where a name gives a salt, the structure may show the parent alone.
Recorded below: GI50, system HCT-15.
Answers are plain numbers, in nM.

[
  {
    "compound": "N#Cc1c(C#N)c(SSc2c(C#N)c(C#N)c(N)n2-c2cccc3ccccc23)n(-c2cccc3ccccc23)c1N",
    "unit abbrev": "nM",
    "GI50": 1980
  },
  {
    "compound": "CC[C@]1(O)C[C@H]2CN(CCc3c([nH]c4ccccc34)[C@@](C(=O)OC)(c3cc4c(cc3OC)N(C=O)[C@H]3[C@@](O)(C(=O)OC)[C@H](OC(C)=O)[C@]5(CC)C=CCN6CC[C@]43[C@@H]65)C2)C1 [VINCRISTINE SULFATE]",
    "unit abbrev": "nM",
    "GI50": 137
  }
]

Q: Return reported GI50; argument: COc1cccc(/C=C2\S/C(=N/Nc3nc(-c4ccc([N+](=O)[O-])cc4)cs3)NC2=O)c1O
A: 15600

* * *

System: HCC 2998
assay method text: NCI tumour cell line growth inhibition, 48 h
Activity calls are given as the source filed them. Rule as the data show it: active = GI50 up to about 1.1 µM and inactive = higher.
Please provide measured GI50 for the entries that follow.

Here is how some compounds turned out for GI50.
[
  {
    "compound": "O=C(O)c1cc2ccccc2c(/N=N/c2ccc(S(=O)(=O)O)cc2)c1O",
    "experimental target": "HCC 2998",
    "GI50": "> 100 µM (inactive)"
  },
  {
    "compound": "COC(=O)c1ccc(O)c2nc3c(C=O)c(O)cc(O)c3nc12",
    "experimental target": "HCC 2998",
    "GI50": "4.93 µM (inactive)"
  },
  {
    "compound": "Cc1c(C)c2c(c(N)c1C#N)C(=O)N(NC(=O)c1ccccc1)C2=O",
    "experimental target": "HCC 2998",
    "GI50": "> 100 µM (inactive)"
  },
  {
    "compound": "O=C(Nc1cccc(NC(=O)C(=O)C2CCC3=C(Sc4ccccc4N3)C2=O)n1)C(=O)C1CCC2=C(Sc3ccccc3N2)C1=O (stereo not given)",
    "experimental target": "HCC 2998",
    "GI50": "29.8 µM (inactive)"
  },
  {
    "compound": "CN1CCC(=O)/C(=C/c2ccccc2)C1",
    "experimental target": "HCC 2998",
    "GI50": "10.9 µM (inactive)"
  }
]

Need GI50 for each of these compounds.
1. Cc1nc2ccc(S(=O)(=O)O)cc2c(=O)n1-c1ccc(C(=O)NN2C(=O)C(Cl)C2c2cccs2)cc1 (stereo not given)
2. C=C1C(=O)OC2C[C@@]3(C)CCCC(=C)C3CC12 (stereo not given in full)
3. CCC(=O)N1C(=S)SC[C@H]1C(=O)OC

A:
> 100 µM (inactive)
13.6 µM (inactive)
> 100 µM (inactive)

Fill in GI50 for each of the 2 compounds listed.
1. COc1cc(/C=C2\N=C(c3ccccc3)N(c3nc4cc(C)c(C)cc4s3)C2=O)ccc1O
2. CCC1C(C#N)=C(O)NC(O)=C1C#N

A:
1: 27 µM (inactive); 2: > 100 µM (inactive)

* * *

Tested on: KM12
assay method text: NCI tumour cell line growth inhibition, 48 h
The source made the active and inactive calls. Cut-off read from the data, not from the text of the source: active = GI50 up to about 1.1 µM and inactive = higher.
Consider the following compounds; for each one, report its GI50.

Consider the following illustrative entries.
[
  {
    "compound": "Nc1nc(Cl)c(N)c(NCC2(CO)CC2)n1",
    "GI50": "> 100 µM (inactive)"
  },
  {
    "compound": "CCCCCCCCCCCCCCCCNC(=O)/C(=C\\c1ccc(Cl)c(Cl)c1)NC(=O)c1ccccc1",
    "GI50": "52.6 µM (inactive)"
  },
  {
    "compound": "C/C(=N/NC(=S)NCCc1ccccn1)c1cnccn1",
    "GI50": "36.9 µM (inactive)"
  },
  {
    "compound": "CC1(C)CC(N(C(=O)/C=C/c2ccc([N+](=O)[O-])o2)C2CCCCC2)CC(C)(C)N1",
    "GI50": "10.3 µM (inactive)"
  },
  {
    "compound": "COc1cc2cc(C(=O)N3CC(COS(C)(=O)=O)c4c3cc([N+](=O)[O-])c3ccccc43)[nH]c2c(OC)c1OC (stereo not given)",
    "GI50": "30.1 µM (inactive)"
  }
]

Go through the list and state GI50 for each entry.
1. O=P(O)(O)C(N=C(Nc1ccccc1)Nc1ccccc1)P(=O)(O)O
2. CCN1c2ccccc2-n2c(C)nnc2-c2c(-c3ccccc3)n[nH]c21
3. COc1cc2c(cc1OC)C(C(=O)O)C(c1ccccc1)N(C)C2=O (stereo not given)
4. O=C1c2cccc3cc([N+](=O)[O-])cc(c23)C(=O)N1NC1=NCCN1

A:
["> 100 µM (inactive)", "26.5 µM (inactive)", "> 100 µM (inactive)", "> 100 µM (inactive)"]

Q: Using the record for CN(C)c1n/c(=N/c2ncn[nH]2)ss1 , report its GI50.
A: > 100 µM (inactive)

* * *

Tested on: SR
assay method text: NCI tumour cell line growth inhibition, 48 h
Calls of active or inactive are those of the source. No stated cut-off is given here; in the data, active = GI50 up to about 1.1 µM and inactive = higher.
readout label: GI50

[
  {
    "compound": "c1ccc(CN2CCN3CCN(CC2)CCN(Cc2ccccc2)CC3)cc1",
    "GI50": "4.08 µM (inactive)"
  },
  {
    "compound": "O=C(Nc1ccc(Cl)cc1)NS(=O)(=O)c1ccc2c(c1)CCC2 [SULOFENUR]",
    "GI50": "> 57 µM (inactive)"
  },
  {
    "compound": "c1ccc2c(c1)nc1n2CCNC1",
    "GI50": "> 100 µM (inactive)"
  }
]

Provide GI50 for all items below, preserving their order.
1. CC(Sc1ccccc1)C(CO)(CO)[N+](=O)[O-] (stereo not given)
2. O=C(NN1C(=O)c2ccccc2C1=O)c1ccccc1Nc1ccccc1C(=O)NN1C(=O)c2ccccc2C1=O
3. O=C(CCn1[nH]c(=O)c(Cl)c(Cl)c1=O)NOCCCc1ccccc1
4. CC(=O)OCC1OC(OCc2ccccc2)C(Br)C(OC(C)=O)C1OC(C)=O (stereo not given)

A:
2.34 µM (inactive)
> 100 µM (inactive)
> 100 µM (inactive)
> 100 µM (inactive)

Batch lookup, GI50 per entry.
1. O=C(NC(Cc1c[nH]c2ccccc12)C(=O)O)/C(=C/c1ccccc1O)NC(=O)c1ccccc1 (stereo not given)
2. O=[N+]([O-])C(=C(N1CCCCC1)N1CCCCC1)/C(Cl)=C(\Cl)[N+](=O)[O-]
3. COc1ccc(CSCc2cc(OC)c(OC)c(OC)c2)cc1

A:
> 100 µM (inactive)
2.19 µM (inactive)
> 100 µM (inactive)
